- TESTED ON: T1, human TREM2 (human, UniProt Q9NZC2 19-174, limits assumed)
- T1 sequence: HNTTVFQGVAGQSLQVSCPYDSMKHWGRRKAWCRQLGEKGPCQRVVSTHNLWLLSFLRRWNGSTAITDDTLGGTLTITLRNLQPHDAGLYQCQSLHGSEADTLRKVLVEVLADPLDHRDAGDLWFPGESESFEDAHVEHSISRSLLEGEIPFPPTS
- TEST METHOD NOTES: yeast-displayed Fab FACS, 2nd screen 100 nM
Quick rule for you: binding signal fold over 6E7 parental at 0.7 fold or higher means Met, lower means Not met.

[[record]]
binder = "V93 (Fab, V domains shown) VH: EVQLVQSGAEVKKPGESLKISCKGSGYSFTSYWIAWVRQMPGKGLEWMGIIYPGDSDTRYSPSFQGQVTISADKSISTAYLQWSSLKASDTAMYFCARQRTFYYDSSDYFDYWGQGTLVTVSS VL: DIQMTQSPSSVSASVGDRVTITCRASQGISGWLAWYQQKPGKAPKLLIYAASSLQNGVPSRFSGSGSGTDFTLTISSLQPEDFATYFCQQADSFPRTFGQGTKLEIK"
assigned_label = "Met"


Alright, here's another binder for you.
In plain terms: is recorded binding signal fold over 6E7 parental at least 0.7 fold for V92 (Fab, V domains shown) VH: EVQLVQSGAEVKKPGESLKISCKGSGYSFTSYWIAWVRQMPGKGLEWMGIIYPGDSDTRYSPSFQGQVTISADKSISTAYLQWSSLKASDTAMYFCARQRTFHYDSSDYFDYWGQGTLVTVSS VL: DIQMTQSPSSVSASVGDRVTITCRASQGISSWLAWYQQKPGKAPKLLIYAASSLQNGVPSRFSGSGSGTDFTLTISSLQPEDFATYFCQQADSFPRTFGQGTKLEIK ?
Not met
